ASSAYED TARGET: B1R receptor of the rat (CHO K1 cells stably transfected with the B1R gene of the rat) (Rattus norvegicus, UniProt P97583)
Construct: expressed in transfected cells; host or cells: CHO K1 cells (Chinese hamster ovary), stably transfected
Sequence (P97583 1-337): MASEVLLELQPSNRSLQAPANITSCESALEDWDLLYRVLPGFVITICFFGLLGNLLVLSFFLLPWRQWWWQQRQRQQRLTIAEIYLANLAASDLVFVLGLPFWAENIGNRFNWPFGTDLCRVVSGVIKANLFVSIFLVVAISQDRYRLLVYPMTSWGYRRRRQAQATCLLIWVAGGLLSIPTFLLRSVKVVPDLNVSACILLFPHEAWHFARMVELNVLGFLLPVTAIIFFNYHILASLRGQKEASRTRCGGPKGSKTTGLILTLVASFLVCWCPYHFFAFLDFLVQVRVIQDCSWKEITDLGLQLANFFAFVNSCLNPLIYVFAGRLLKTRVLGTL
PROTOCOL TEXT: Functional study on the bradykinin receptor 1 (B1R), Ca2+ fluorescence (Fluo-4) FLIPR/Novostar assay, rB1R cells
Format: cell-based
TEST PARAMETERS: CHO-K1, 10 μM, read-out: % inhibition (rat B1R) at 10 μM
Please go through the items and note down their inhibition at 10 µM.
Answers are plain numbers, in %.

Examples with their reported inhibition at 10 µM follow.
1) CC(C)N(C(=O)c1ccccc1Cl)[C@@H]1CCc2ccc(C(=O)N(C)C3CCN(c4ccncc4)CC3)cc21 [Example H-150] ... 98
2) CN(C(=O)c1ccc2c(c1)[C@H](NC(=O)C1CCC1)CC2)C1CCN(c2ccncc2)CC1 [Example H-18] ... 102
3) CC(C)CC(=O)N[C@@H]1CCc2ccc(C(=O)N(C)C3CCN(c4ccncc4)CC3)cc21 [Example H-28] ... 100
4) Cc1cc(N2CCC(N(C)C(=O)c3ccc4c(c3)[C@H](NC(=O)c3ccccc3F)CC4)CC2)nc(C)n1 [Example H-128] ... 100
5) COc1ccc(N2CCC(N(C)C(=O)c3ccc4c(c3)[C@H](NC(=O)c3ccccc3Cl)CC4)CC2)cn1 [Example H-101] ... 95
6) CN(C(=O)c1ccc2c(c1)[C@H](NC(=O)c1c(F)cccc1Cl)CC2)C1CCN(c2ccncc2)CC1 [Example H-32] ... 101
7) CN(C(=O)c1ccc2c(c1)[C@H](N(C)C(=O)c1ccccc1Cl)CC2)C1CCN(c2ccncc2)CC1 [Example H-153] ... 101

# input for lookup
Query: Endpoint output: inhibition at 10 µM of CN(C(=O)c1ccc2c(c1)[C@H](NC(=O)c1cnn3cccnc13)CC2)C1CCN(c2ccncc2)CC1 [Example H-22] . Value?
Reply: 87

Values compiled from patent US8680159B2.
